Molecular target: Tyrosinase (tyrosinase mushroom)
Construct: gene PPO3; native mushroom tyrosinase preparation, isoenzyme mixture not resolved; only 'mushroom' given
Assay: spectrophotometric dopachrome assay, […] nm
Type: biochemical, Agaricus bisporus
Conditions: L-DOPA, pH 6.8, 37 °C, 10 min preincubation
For each of the compounds below, state its Tyrosinase activity (IC50 mM/mL).
Respond with the bare value in mM/mL.

Problem: Provide only the value of recorded Tyrosinase activity (IC50 mM/mL) for COc1cc(C=NNC(=O)c2cc(C(F)(F)F)cc(C(F)(F)F)c2)cc(OC)c1O [7j]
Solution: 40.08

Problem: Provide only the value of recorded Tyrosinase activity (IC50 mM/mL) for COc1cc(C=NNC(=O)c2ccc(F)cc2)cc(OC)c1O [7d]
Solution: 64.38

Problem: Provide only the value of recorded Tyrosinase activity (IC50 mM/mL) for COc1cc(C=NNC(=O)c2ccc(C(F)(F)F)cc2)cc(OC)c1O [7i]
Solution: 49.73

Problem: Provide only the value of recorded Tyrosinase activity (IC50 mM/mL) for COc1cc(C=NNC(=O)c2ccccc2C(F)(F)F)cc(OC)c1O [7g]
Solution: 61.07

Problem: Provide only the value of recorded Tyrosinase activity (IC50 mM/mL) for COc1cc(C=NNC(=O)c2cccc(C(F)(F)F)c2)cc(OC)c1O [7h]
Solution: 56.88

These entries and their values trace back to paper PMC10734773.
